biological target: TTK (human) (UniProt P33981); test: KINOMEscan competition binding; settings: compound 10.0 µM
Sequence (P33981 whole entry, looked up): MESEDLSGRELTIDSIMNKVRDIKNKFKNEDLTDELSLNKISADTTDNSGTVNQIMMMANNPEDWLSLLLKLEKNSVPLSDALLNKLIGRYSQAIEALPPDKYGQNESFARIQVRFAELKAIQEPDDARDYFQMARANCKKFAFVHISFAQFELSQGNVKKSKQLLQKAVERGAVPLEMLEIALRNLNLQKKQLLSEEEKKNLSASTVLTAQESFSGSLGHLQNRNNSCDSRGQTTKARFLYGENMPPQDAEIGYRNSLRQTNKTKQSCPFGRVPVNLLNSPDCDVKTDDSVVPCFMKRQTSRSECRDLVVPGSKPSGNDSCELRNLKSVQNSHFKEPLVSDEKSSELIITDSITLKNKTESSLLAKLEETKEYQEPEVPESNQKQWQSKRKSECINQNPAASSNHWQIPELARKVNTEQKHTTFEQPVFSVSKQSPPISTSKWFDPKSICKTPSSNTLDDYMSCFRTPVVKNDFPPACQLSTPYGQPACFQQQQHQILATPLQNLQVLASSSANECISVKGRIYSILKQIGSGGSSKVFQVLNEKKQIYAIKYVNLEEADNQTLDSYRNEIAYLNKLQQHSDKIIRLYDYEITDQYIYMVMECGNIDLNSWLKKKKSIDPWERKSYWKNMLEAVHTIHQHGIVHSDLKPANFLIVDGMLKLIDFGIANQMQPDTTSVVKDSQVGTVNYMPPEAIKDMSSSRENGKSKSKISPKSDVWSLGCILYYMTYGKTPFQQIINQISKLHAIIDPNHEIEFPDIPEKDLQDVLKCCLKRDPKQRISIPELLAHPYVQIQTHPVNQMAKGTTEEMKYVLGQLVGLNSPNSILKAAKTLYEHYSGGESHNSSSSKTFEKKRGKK
kinase still bound, per cent of control reference
Form entry: value (%) — number only.

Compound structure	Tested on	Unit spec	kinase still bound, per cent of control
COC(=O)Nc1ccc(-c2nc(N3CCOCC3)c3cnn(C4CCN(C(=O)OC)CC4)c3n2)cc1	TTK (human) (UniProt P33981)	%	100
CC(C)n1nc(-c2cc3cc(O)ccc3[nH]2)c2c(N)ncnc21	TTK (human) (UniProt P33981)	%	9.2

# input Supply measured kinase still bound, per cent of control of COc1ccc(-c2ccc3c(N4CCOCC4)nc(N4C[C@@H](C)O[C@@H](C)C4)nc3n2)cc1CO in your reply.
# output 95

# input Tell me kinase still bound, per cent of control reported for CCC(=O)N1CCN(c2ccc(-n3c(=O)ccc4cnc5ccc(-c6cnc7ccccc7c6)cc5c43)cc2C(F)(F)F)CC1
# output 9.6

---

biological target: PIP5K1A (human) (UniProt Q99755); assay: KINOMEscan competition binding; settings: compound 10.0 µM
Sequence (Q99755 whole entry, looked up): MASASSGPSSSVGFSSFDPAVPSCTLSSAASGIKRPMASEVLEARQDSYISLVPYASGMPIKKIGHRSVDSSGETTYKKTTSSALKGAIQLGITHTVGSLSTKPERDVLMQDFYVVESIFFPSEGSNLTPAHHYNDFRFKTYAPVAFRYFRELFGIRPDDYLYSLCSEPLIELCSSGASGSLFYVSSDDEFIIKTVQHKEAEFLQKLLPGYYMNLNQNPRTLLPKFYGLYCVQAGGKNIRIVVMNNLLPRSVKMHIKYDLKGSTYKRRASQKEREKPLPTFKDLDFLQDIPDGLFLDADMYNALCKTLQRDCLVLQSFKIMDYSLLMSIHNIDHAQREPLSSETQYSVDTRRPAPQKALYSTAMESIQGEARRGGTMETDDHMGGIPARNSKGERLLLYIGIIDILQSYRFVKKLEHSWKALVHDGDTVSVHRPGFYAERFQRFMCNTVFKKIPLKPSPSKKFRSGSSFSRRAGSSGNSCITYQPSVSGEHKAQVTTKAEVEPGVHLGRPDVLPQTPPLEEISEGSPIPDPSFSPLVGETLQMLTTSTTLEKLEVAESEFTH
Recorded metric: kinase still bound, per cent of control
Give the value; after it, write the unit.

Compound structure	kinase still bound, per cent of control
CC(C)n1nc(-c2cc3cc(O)ccc3[nH]2)c2c(N)ncnc21	62%

# input Enter measured kinase still bound, per cent of control, system PIP5K1A (human) (UniProt Q99755), for the compound shown: CCC(=O)N1CCN(c2ccc(-n3c(=O)ccc4cnc5ccc(-c6cnc7ccccc7c6)cc5c43)cc2C(F)(F)F)CC1
# output 89%

# input State kinase still bound, per cent of control (PIP5K1A (human) (UniProt Q99755)) of COc1ccc(-c2ccc3c(N4CCOCC4)nc(N4C[C@@H](C)O[C@@H](C)C4)nc3n2)cc1CO .
# output 97%

# input Given COC(=O)Nc1ccc(-c2nc(N3CCOCC3)c3cnn(C4CCN(C(=O)OC)CC4)c3n2)cc1 , report its kinase still bound, per cent of control on PIP5K1A (human) (UniProt Q99755).
# output 98%

---

biological target: UniProt P21127; assay: KINOMEscan competition binding; conditions: compound 10.0 µM
Sequence (P21127 whole entry, looked up): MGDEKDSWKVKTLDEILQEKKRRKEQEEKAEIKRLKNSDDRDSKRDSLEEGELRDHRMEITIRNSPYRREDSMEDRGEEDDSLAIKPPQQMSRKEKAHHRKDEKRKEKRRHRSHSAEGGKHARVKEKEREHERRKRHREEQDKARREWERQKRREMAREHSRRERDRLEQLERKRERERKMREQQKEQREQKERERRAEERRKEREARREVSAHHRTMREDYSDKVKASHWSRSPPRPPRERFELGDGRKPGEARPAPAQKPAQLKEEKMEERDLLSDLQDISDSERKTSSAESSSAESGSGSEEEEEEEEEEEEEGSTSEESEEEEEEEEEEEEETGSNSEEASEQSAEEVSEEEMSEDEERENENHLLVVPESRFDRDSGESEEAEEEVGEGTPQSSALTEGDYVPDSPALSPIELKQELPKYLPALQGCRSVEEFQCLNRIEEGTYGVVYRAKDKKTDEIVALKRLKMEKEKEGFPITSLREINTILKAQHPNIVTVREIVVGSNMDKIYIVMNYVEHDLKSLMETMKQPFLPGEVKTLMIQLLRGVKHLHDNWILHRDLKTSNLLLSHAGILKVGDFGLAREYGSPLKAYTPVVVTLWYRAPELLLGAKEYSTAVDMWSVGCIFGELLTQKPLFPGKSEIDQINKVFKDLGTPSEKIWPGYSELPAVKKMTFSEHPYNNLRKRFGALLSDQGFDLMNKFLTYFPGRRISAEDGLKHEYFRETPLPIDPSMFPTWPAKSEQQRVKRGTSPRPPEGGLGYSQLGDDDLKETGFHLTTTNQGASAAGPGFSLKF
Recorded metric: per cent of control (%)
State just the number; it will be interpreted in %.

Below, 3 compounds whose answers are already recorded.
Compound structure	per cent of control (%)
COc1ccc(-c2ccc3c(N4CCOCC4)nc(N4C[C@@H](C)O[C@@H](C)C4)nc3n2)cc1CO	100
CCC(=O)N1CCN(c2ccc(-n3c(=O)ccc4cnc5ccc(-c6cnc7ccccc7c6)cc5c43)cc2C(F)(F)F)CC1	97
COC(=O)Nc1ccc(-c2nc(N3CCOCC3)c3cnn(C4CCN(C(=O)OC)CC4)c3n2)cc1	100

Kindly consider the entry below.
# input Give per cent of control for the following compound: CC(C)n1nc(-c2cc3cc(O)ccc3[nH]2)c2c(N)ncnc21
# output 100

---

system: FLT3 (human), P36888 [N841I]; assay: KINOMEscan competition binding; details: compound 10.0 µM
Recorded metric: kinase still bound, per cent of control (%)
Write it as a number; the unit % goes unstated.

Compound structure	kinase still bound, per cent of control (%)
COc1ccc(-c2ccc3c(N4CCOCC4)nc(N4C[C@@H](C)O[C@@H](C)C4)nc3n2)cc1CO	82
COC(=O)Nc1ccc(-c2nc(N3CCOCC3)c3cnn(C4CCN(C(=O)OC)CC4)c3n2)cc1	78
CC(C)n1nc(-c2cc3cc(O)ccc3[nH]2)c2c(N)ncnc21	5

Now look at this one.
# input Write down kinase still bound, per cent of control measured for item CCC(=O)N1CCN(c2ccc(-n3c(=O)ccc4cnc5ccc(-c6cnc7ccccc7c6)cc5c43)cc2C(F)(F)F)CC1
# output 8.8
